# target: RSK4 (Homo sapiens)
# Construct: purchased Reaction Biology Corporation
# Sequence (Q9UK32 whole entry): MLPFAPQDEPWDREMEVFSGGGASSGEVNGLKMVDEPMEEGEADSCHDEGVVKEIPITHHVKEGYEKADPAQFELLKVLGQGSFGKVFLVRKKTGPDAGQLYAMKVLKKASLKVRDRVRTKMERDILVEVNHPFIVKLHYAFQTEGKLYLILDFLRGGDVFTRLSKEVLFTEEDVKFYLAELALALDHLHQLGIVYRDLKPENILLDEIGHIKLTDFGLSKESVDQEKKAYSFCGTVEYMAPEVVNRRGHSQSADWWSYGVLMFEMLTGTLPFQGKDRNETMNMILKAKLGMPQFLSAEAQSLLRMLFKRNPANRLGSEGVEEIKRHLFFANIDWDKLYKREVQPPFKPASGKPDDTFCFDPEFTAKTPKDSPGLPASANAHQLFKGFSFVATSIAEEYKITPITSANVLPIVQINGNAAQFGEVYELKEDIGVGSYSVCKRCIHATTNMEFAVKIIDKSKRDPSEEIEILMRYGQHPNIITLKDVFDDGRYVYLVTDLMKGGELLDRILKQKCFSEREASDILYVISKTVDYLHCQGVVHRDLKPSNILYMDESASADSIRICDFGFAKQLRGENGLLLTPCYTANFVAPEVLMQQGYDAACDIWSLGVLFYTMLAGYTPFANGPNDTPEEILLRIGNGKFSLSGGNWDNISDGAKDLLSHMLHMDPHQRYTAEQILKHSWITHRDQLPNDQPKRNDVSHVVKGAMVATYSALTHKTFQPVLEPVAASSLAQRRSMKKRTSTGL
# measurementNotes: Kinase inhibition assay
# Format: biochemical
# measurementSetup: 10 μM ATP; 5-dose IC50 mode
assayReadout: IC50

Returns the measured IC50 for the input compound. Input: CN1CCN(c2ccc(Nc3ncc(/C=C/C#N)c(NC4CCCC4)n3)cc2)CC1 [Compound 8h]
< 100 nM

###

# target: PDGFRb (Homo sapiens, UniProt P09619)
# Construct: purchased Reaction Biology Corporation
# Sequence (P09619 33-1106): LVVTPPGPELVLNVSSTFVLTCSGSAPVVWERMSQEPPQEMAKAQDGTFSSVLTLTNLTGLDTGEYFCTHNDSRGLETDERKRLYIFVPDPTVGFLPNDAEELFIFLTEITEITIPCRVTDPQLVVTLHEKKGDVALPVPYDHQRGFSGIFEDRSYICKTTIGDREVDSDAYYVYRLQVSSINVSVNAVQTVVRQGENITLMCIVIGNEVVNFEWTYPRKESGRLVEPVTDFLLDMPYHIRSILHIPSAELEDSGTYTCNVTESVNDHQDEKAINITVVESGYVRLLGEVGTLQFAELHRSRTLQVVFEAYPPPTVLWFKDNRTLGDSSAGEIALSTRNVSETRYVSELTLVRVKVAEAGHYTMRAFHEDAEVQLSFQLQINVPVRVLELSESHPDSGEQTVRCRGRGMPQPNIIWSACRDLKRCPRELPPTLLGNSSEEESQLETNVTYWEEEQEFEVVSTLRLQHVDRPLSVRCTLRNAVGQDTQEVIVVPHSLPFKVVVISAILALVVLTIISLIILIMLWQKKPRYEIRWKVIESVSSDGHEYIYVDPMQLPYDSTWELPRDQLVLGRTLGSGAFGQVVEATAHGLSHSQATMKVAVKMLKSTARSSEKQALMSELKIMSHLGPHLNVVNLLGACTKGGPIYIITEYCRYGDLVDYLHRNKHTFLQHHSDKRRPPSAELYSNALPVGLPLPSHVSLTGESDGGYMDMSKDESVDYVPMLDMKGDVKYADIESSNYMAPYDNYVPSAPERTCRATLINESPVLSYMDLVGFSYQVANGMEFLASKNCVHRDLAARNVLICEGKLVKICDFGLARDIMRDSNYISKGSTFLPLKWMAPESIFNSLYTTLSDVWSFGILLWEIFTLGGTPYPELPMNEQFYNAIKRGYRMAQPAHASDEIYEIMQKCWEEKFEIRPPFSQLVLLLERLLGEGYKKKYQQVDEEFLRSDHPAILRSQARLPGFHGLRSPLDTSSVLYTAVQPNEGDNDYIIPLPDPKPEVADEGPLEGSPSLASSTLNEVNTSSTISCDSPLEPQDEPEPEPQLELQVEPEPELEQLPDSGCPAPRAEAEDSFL
# measurementNotes: Kinase inhibition assay
# Type: biochemical
# measurementSetup: 10 μM ATP; 5-dose IC50 mode
# Experimental: Kinase assays were performed at Reaction Biology Corporation. To a freshly prepared buffer solution was added the target kinase at a concentration of […]. The contents were mixed gently, and then compound 8h dissolved in DMSO was added to the reaction mixture in the appropriate concentration. The mixture was incubated at room temperature for 30 min. prior to addition of ATP to initiate the reaction. Compound 8h was tested in a 5-dose IC50 mode with 10-fold serial dilutions starting at 10 μM. […]
assayReadout: IC50

Returns the measured IC50 for the input molecule. Input: CN1CCN(c2ccc(Nc3ncc(/C=C/C#N)c(NC4CCCC4)n3)cc2)CC1
< 100 nM
